In this section we review reported %Inh values for a set of compounds.
tested on: TEC; conditions: concentration: 1 μM, replicates: in singlicate; n = 1;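 also: KINOMEscan kinase panel screen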
# output: bare number, implied unit %

In the examples that follow, each entry is paired with its recorded %Inh.
{"columns": ["compound", "%Inh [%]"],
 "data": [
  ["Cc1ccc(NC(=O)c2ccnc(N3CCCCC3)c2)cc1-c1ccc(C(=O)NCC2CC2)cc1", 0],
  ["Cc1nn2c(=O)cc(N3CCO[C@H](C)C3)nc2n1Cc1cccc(Cl)c1Cl", 2],
  ["CCNC(=O)/C=C/c1n[nH]c2cc(Sc3ccccc3C(=O)NC)ccc12", 0],
  ["COc1ccc(C2=C(Nc3cccc(O)c3)C(=O)NC2=O)cc1", 14],
  ["Cn1cc(-c2cnc(N)c3c(-c4ccc5c(c4)CCN5C(=O)Cc4ccccc4)csc23)cn1", 14]
]}

Query: For the compound Cl.Cl.NCC(NC(=O)c1cc(-c2cccnc2)c(-c2ccnc3[nH]ccc23)s1)c1ccccc1 (stereo not drawn) , what %Inh is on record?
Result: 27

Query: For the compound `CCn1c(-c2nonc2N)nc2c(-c3ccccc3)ncc(OCCCN)c21.O=C(O)C(F)(F)F.O=C(O)C(F)(F)F` , what %Inh is on record?
Result: 0

Query: For the compound `Fc1cc(Cl)ccc1Nc1ccnc2cc(-c3ccc(CN4CCOCC4)o3)ccc12` , what %Inh is on record?
Result: 76

====

test system: ULK1; conditions: concentration: 1 μM, replicates: in singlicate; n = 1
readout type: %Inh (%)
# output: bare number, implied unit %

In the examples that follow, each entry is paired with its recorded %Inh.
{"columns": ["input smiles", "%Inh (%)"],
 "data": [
  ["Cc1ccc(NC(=O)c2cccc(N3CCCCC3)c2)cc1-c1ccc(C(=O)NCC2CC2)cc1", 37],
  ["Cc1nn2c(=O)cc(N3CCO[C@H](C)C3)nc2n1Cc1cccc(Cl)c1Cl", 78],
  ["Cn1cc(-c2ccc3c(c2)CCN3C(=O)Cc2cc(F)cc(C(F)(F)F)c2)c2c(N)ncnc21", 0]
]}

We next turn to a different compound, shown below.
Query: # value lookup — system ULK1, readout %Inh, item `CC(C)c1nc(-c2ccc(F)c(NS(=O)(=O)c3c(F)cccc3F)c2)c(-c2ccnc(Nc3ccc(N4CCOCC4)nc3)n2)s1`
Result: 9

====

tested on: FRK; settings: concentration: 1 μM, replicates: in singlicate; n = 1
readout type: %Inh (%)
# output: bare number, implied unit %

{"columns": ["compound", "%Inh, %"],
 "data": [
  ["Cc1ccc(Nc2ccnc(Nc3ccc(C)c(F)c3)n2)cc1O.Cl [GW582868]", 92.9],
  ["CN(c1ccc2c(c1)nc(NCc1ccccc1)n2C)c1ccnc(Nc2ccc(CS(C)(=O)=O)cc2)n1.Cl [GW811603]", 86],
  ["Fc1cc(Cl)ccc1Nc1ccnc2cc(-c3ccc(CN4CCSCC4)o3)ccc12 [GW560106]", 86],
  ["COc1cccc(-c2nc(-c3ccccc3)[nH]c2-c2ccncc2)c1 [SB-610250]", 28]
]}

We next turn to a different compound, shown below.
Query: # value lookup — system FRK, readout %Inh, item Cc1cccc(Nc2nc(N[C@H]3CCCC[C@H]3N)ncc2C(N)=O)c1.Cl [GSK986310]
Result: 19

====

system: FGFR3; conditions: concentration: 1 μM, replicates: in singlicate; n = 1
In this section we review reported %Inh values for a set of compounds.
# output: bare number, implied unit %

In the examples that follow, each entry is paired with its recorded %Inh.
{"columns": ["compound", "numeric readout"],
 "data": [
  ["Fc1cc(Cl)ccc1Nc1ccnc2cc(-c3ccc(CN4CCSCC4)o3)ccc12", 11],
  ["CCn1cnc2c(NCc3ccccc3)ncnc21", 0],
  ["Cc1ccc(O)cc1Nc1ccnc2ccc(C(C)(C)C)cc12", 0],
  ["COc1cc(Nc2nccc(N3CCC(NC(=O)Nc4ccc5c(c4)OCO5)C3)n2)cc(OC)c1OC (centres unmarked)", 0],
  ["Cl.N#CCc1ccc(Nc2nccc(Nc3ccc(Oc4ccccc4)cc3)n2)cc1", 13]
]}

Query: For the compound `Cc1ccc(NC(=O)c2ccnc(N3CCCCC3)c2)cc1-c1ccc(C(=O)NCC2CC2)cc1` , what %Inh is on record?
Result: 2

Query: For the compound `CN(c1ccc2c(c1)nc(NCc1ccccc1)n2C)c1ccnc(Nc2ccc(CS(C)(=O)=O)cc2)n1.Cl` , what %Inh is on record?
Result: 0

Query: For the compound `CC(C)c1nc(-c2cccc(NS(=O)(=O)c3c(F)cccc3F)c2)c(-c2ccnc(Nc3ccc(N4CCOCC4)nc3)n2)s1.Cl` , what %Inh is on record?
Result: 4

====

In this section we review reported %Inh values for a set of compounds.
test system: SLK; details: concentration: 1 μM, replicates: in singlicate; n = 1
# output: bare number, implied unit %

{"columns": ["compound", "%Inh, %"],
 "data": [
  ["Cc1ccc(O)cc1Nc1ccnc2ccc(C(C)(C)C)cc12 [GW856805]", 12]
]}

Query: For the compound O=C(Nc1n[nH]c2nc(-c3ccccc3)ccc12)C1CC1 [SB-708999] , what %Inh is on record?
Result: 12

Query: For the compound `CS(=O)(=O)c1cccc(CNc2nc(Nc3ccc4c(c3)CCC(=O)N4)ncc2C(F)(F)F)c1` , what %Inh is on record?
Result: 20

====

system: ROCK1; conditions: concentration: 1 μM, replicates: in singlicate; n = 1
So basically, the class depends on measured %Inh, and the ranges are low class: < 3%; middle class: ≥ 3% and < 30%; high class: ≥ 30%

# count of solved cases: 5
{"columns": ["input smiles", "assigned category"],
 "data": [
  ["COc1ccc(C)c(Nc2ccnc(Nc3ccc(-c4cnc[nH]4)cc3)n2)c1.Cl", "low class"],
  ["O=C1NC(=O)C(c2ccccc2Cl)=C1Nc1cccc(Cl)c1", "low class"],
  ["Cc1ccc(NC(=O)c2ccnc(N3CCCCC3)c2)cc1-c1ccc(C(=O)NCC2CC2)cc1", "middle class"],
  ["Cc1ccc(O)cc1Nc1ccnc2ccc(C(C)(C)C)cc12", "high class"],
  ["Cn1cc(-c2cnc(N)c3c(-c4ccc5c(c4)CCN5C(=O)Cc4ccccc4)csc23)cn1", "low class"]
]}

Query: Which class is correct for the following molecule? `Fc1cc(Cl)ccc1Nc1ccnc2cc(-c3ccc(CN4CCOCC4)o3)ccc12`
Result: middle class

Query: Which class is correct for the following molecule? `O=C(Nc1n[nH]c2nc(-c3cccc(O)c3)ccc12)C1CC1`
Result: low class

Query: Which class is correct for the following molecule? `Fc1cc(Cl)ccc1Nc1ccnc2cc(-c3ccc(CN4CCSCC4)o3)ccc12`
Result: middle class

Query: Which class is correct for the following molecule? `COc1ccc(C2=C(Nc3cccc(O)c3)C(=O)NC2=O)cc1`
Result: middle class

Query: Which class is correct for the following molecule? `c1ccc(Oc2ccc(Nc3ccnc4cc(-c5ccc(CN6CCCCC6)o5)ccc34)cc2)nc1`
Result: middle class

Query: Which class is correct for the following molecule? `Nc1ncnc2scc(-c3ccc(NC(=O)Cc4cc(F)ccc4F)cc3)c12.O=C(O)C(F)(F)F`
Result: low class

Query: Which class is correct for the following molecule? `Cc1cccc(Nc2nc(N[C@H]3CCCC[C@H]3N)ncc2C(N)=O)c1.Cl`
Result: high class

Query: Which class is correct for the following molecule? `Nc1ncc(-c2ccc3nccc(-c4ccncc4)c3c2)cc1S(=O)(=O)N1CCCCC1`
Result: middle class

Query: Which class is correct for the following molecule? `Cc1cc(-c2c(-c3ccc(F)cc3)ncn2CCCN2CCOCC2)nc(N)n1`
Result: middle class

Query: Which class is correct for the following molecule? `Cl.O=C(Nc1ccc(Oc2ccc3[nH]c(NC(=O)c4ccco4)nc3c2)cc1)Nc1cc(C(F)(F)F)ccc1F`
Result: high class

Query: Which class is correct for the following molecule? `Cl.N#CCc1ccc(Nc2nccc(Nc3ccc(Oc4ccccc4)cc3)n2)cc1`
Result: high class

Query: Which class is correct for the following molecule? `COc1ccc(NC(=O)c2ccoc2)cc1-c1ccc(C(=O)NCC2CC2)cc1`
Result: high class

====

test system: IKK-alpha; construct: gene CHUK; conditions: concentration: 1 μM, replicates: in singlicate; n = 1
readout type: %Inh (%)
# output: bare number, implied unit %

In the examples that follow, each entry is paired with its recorded %Inh.
{"columns": ["compound", "tgt", "numeric readout"],
 "data": [
  ["Nc1ncnc2scc(-c3ccc(NC(=O)Cc4cc(F)ccc4F)cc3)c12.O=C(O)C(F)(F)F", "IKK-alpha", 4],
  ["Cc1cccc(Nc2nc(NCCN)ncc2C(N)=O)c1", "IKK-alpha", 28],
  ["CN(C)CCNS(=O)(=O)c1ccc(-c2ccnc3[nH]ccc23)cc1", "IKK-alpha", 85]
]}

Query: For the compound `CCOc1nccc(-c2c(-c3ccc(F)cc3)ncn2C2CCNCC2)n1` , what %Inh is on record?
Result: 0
